Test system: symmetric dimethylation of arginine (SDMA) of PRMT5 substrates in MCF-7 cells
Assay: PRMT5 Cell Target Engagement (TE) Assay
Format: cell-based
Conditions: Homo sapiens, MCF7, 72 h; MCF-7 cells treated for 3 days; nuclear SDMA by high content imaging; top concentration 10000 nM
Description: PRMT5 Cell Target Engagement (TE) Assay The PRMT5 TE assay is a biomarker assay for identifying compounds that inhibit symmetric dimethylation of arginine (SDMA) of PRMT5 substrates. The following substrates have been reported for PRMT5: Histone H2A and H4 R3, Histone H3 R2, Histone 1-13 R8, spliceosome Sm proteins, ribosomal protein RPS10, p53, FEN1, nucleoplasmin, nucleolin, EGFR and EBNA. […]
parameter-measured: EC50 (nM)

>>> measured("CNc1ncnc2c1ccn2[C@@H]1C[C@H](COc2ccc3cc(Br)c(N)nc3c2)[C@@](C)(O)[C@H]1O [Example 93]")
3.5

I. Nc1nc2cc(O[C@H]3CC[C@@]4(O)[C@@H]3O[C@@H](n3ccc5c(Cl)ncnc53)[C@@H]4O)ccc2cc1Br [Example 5]
II. Nc1nc2cc(O[C@H]3CC[C@@]4(O)[C@@H]3O[C@@H](n3ccc5c(N)ncnc53)[C@@H]4O)ccc2cc1F [Example 71]
III. Nc1nc2c(F)c(C[C@@H]3CC[C@@]4(O)[C@@H]3O[C@@H](n3ccc5c(N)ncnc53)[C@@H]4O)ccc2cc1Cl [Example 26]
IV. Nc1nc2cc(C[C@@H]3CC[C@@]4(O)[C@@H]3O[C@@H](n3ccc5c(N)nc(F)nc53)[C@@H]4O)ccc2cc1F [Example 45]
Could you please sort these 4 entries by EC50 from high to low? Labels, requested order.
I, II, III, IV
(I: 19 nM, II: 9 nM, III: 4 nM, IV: 1.2 nM)

I. C[C@@]1(CCc2ccc3cc(F)c(N)nc3c2)C[C@@H](n2ccc3c(N)ncnc32)[C@H](O)[C@@H]1O [Example 116]
II. Cc1nc(C)c2ccn([C@@H]3O[C@@H]4[C@@H](Oc5ccc6cc(Br)c(N)nc6c5)CC[C@]4(O)[C@H]3O)c2n1 [Example 80, 2,2,2-trifluoroacetate]
For the two items I and II , which reports the higher EC50 value? Answer with the label corresponding to your selection.
II
(II: 97 nM, I: 53.7 nM)

P. C[C@]1(CCc2ccc3cc(Br)c(N)nc3c2)C[C@@H](n2ccc3c(N)ncnc32)[C@H](O)[C@]1(C)O [Example 117]
Q. Cc1ncnc2c1ccn2[C@@H]1O[C@@H]2[C@@H](Cc3ccc4cc(Br)c(N)nc4c3)OC[C@]2(O)[C@H]1O [Example 134]
R. C[C@@]1(O)[C@@H](COc2ccc3cc(Br)c(N)nc3c2)C[C@@H](n2ccc3c(Cl)ncnc32)[C@@H]1O [Example 1]
S. Cc1nc(N)c2ccn([C@@H]3C[C@@H]4[C@H](Cc5ccc6cc(Br)c(N)nc6c5)CC[C@]4(O)[C@H]3O)c2n1 [Example 37]
I would appreciate it if you could sort these 4 compounds by EC50, starting from the smallest number. List the labels in the requested order.
S, P, R, Q
(S: 0.6 nM, P: 8.5 nM, R: 18 nM, Q: 35.8 nM)

1. Nc1nc2cc(C[C@@H]3CC[C@@]4(O)[C@@H]3O[C@@H](n3cc(F)c5c(N)ncnc53)[C@@H]4O)ccc2cc1Br [Example 108]
2. Cc1cn([C@@H]2O[C@@H]3[C@@H](Oc4ccc5cc(Br)c(N)nc5c4)CC[C@]3(O)[C@H]2O)c2ncnc(N)c12 [Example 60]
Between 1 and 2 , whose measured EC50 reads higher? Field: selected label. Fill in the label of the entry you choose.
2

###

system: symmetric dimethylation of arginine (SDMA) of PRMT5 substrates in MCF-7 cells; test: PRMT5 Cell Target Engagement (TE) Assay; assay type: cell-based; conditions: Homo sapiens, MCF7, 72 h; MCF-7 cells treated for 3 days; nuclear SDMA by high content imaging; top concentration 10000 nM
parameter-measured: EC50 (nM)

A. Nc1ncnc2c1ccn2[C@@H]1O[C@@H]2[C@@H](Oc3ccc4ccc(NCC5CC5)nc4c3)CC[C@]2(O)[C@H]1O [Example 58]
B. Cc1nc(N)c2c(F)cn([C@@H]3O[C@@H]4[C@H](Cc5ccc6cc(F)c(N)nc6c5)CC[C@]4(O)[C@H]3O)c2n1 [Example 44, 2,2,2-trifluoroacetate]
C. Cc1ncnc2c1ccn2[C@@H]1O[C@@H]2[C@@H](Cc3ccc4cc(Cl)c(N)nc4c3)CC[C@]2(O)[C@H]1O [Example 131]
Please arrange the 3 compounds above from largest to smallest EC50 value. Respond with an ordered listing of the labels, as requested.
C, B, A
(C: 21.3 nM, B: 8.8 nM, A: 1 nM)

###

test system: symmetric dimethylation of arginine (SDMA) of PRMT5 substrates in MCF-7 cells; experiment: PRMT5 Cell Target Engagement (TE) Assay; assay type: cell-based; details: Homo sapiens, MCF7, 72 h; MCF-7 cells treated for 3 days; nuclear SDMA by high content imaging; top concentration 10000 nM
parameter-measured: EC50 (nM)

P. Nc1nc2cc(O[C@H]3CC[C@@]4(O)[C@@H]3O[C@@H](n3cc(C5CC5)c5c(N)ncnc53)[C@@H]4O)ccc2cc1Br [Example 52]
Q. Nc1nc2cc(O[C@H]3CC[C@@]4(O)[C@@H]3O[C@@H](n3ccc5c(N)ncnc53)[C@@H]4O)ccc2cc1C(F)F [Example 128]
R. Nc1nc2cc(C[C@@H]3CC[C@@]4(O)[C@@H]3O[C@@H](n3ccc5c(C6CC6)ncnc53)[C@@H]4O)ccc2cc1Br [Example 87]
Order the records by EC50, with each subsequent value no larger than the one before. Answer format: the labels, ordered as requested.
P, R, Q

###

Tested on: symmetric dimethylation of arginine (SDMA) of PRMT5 substrates in MCF-7 cells
Experiment: PRMT5 Cell Target Engagement (TE) Assay
Assay type: cell-based
Conditions: Homo sapiens, MCF7, 72 h; MCF-7 cells treated for 3 days; nuclear SDMA by high content imaging; top concentration 10000 nM
Source text: PRMT5 Cell Target Engagement (TE) Assay The PRMT5 TE assay is a biomarker assay for identifying compounds that inhibit symmetric dimethylation of arginine (SDMA) of PRMT5 substrates. The following substrates have been reported for PRMT5: Histone H2A and H4 R3, Histone H3 R2, Histone 1-13 R8, spliceosome Sm proteins, ribosomal protein RPS10, p53, FEN1, nucleoplasmin, nucleolin, EGFR and EBNA. […]
pEC50: −log10 of the molar value.
parameter-measured: pEC50

Completed entries (count: 3):
>>> measured("Cc1ncnc2c1ccn2[C@@H]1O[C@@H]2[C@@H](Oc3ccc4cc(C(F)F)c(N)nc4c3)CC[C@]2(O)[C@H]1O")
7.87
>>> measured("Cc1ncnc2c1ccn2[C@@H]1O[C@@H]2[C@H](Oc3ccc4cc(Br)c(N)nc4c3)CC[C@]2(O)[C@H]1O")
5.00
>>> measured("Nc1nc2cc(C[C@@H]3CC[C@@]4(O)[C@@H]3C[C@@H](n3ccc5c(N)ncnc53)[C@@H]4O)ccc2cc1Br [Example 41, 2,2,2-trifluoroacetate]")
8.54

P. CC(C)c1ncnc2c1ccn2[C@@H]1O[C@@H]2[C@H](Cc3ccc4cc(Br)c(N)nc4c3)CC[C@]2(O)[C@H]1O
Q. C[C@]12O[C@@H](n3ccc4c(N)ncnc43)[C@H](O)[C@@]1(O)CC[C@H]2Cc1ccc2cc(F)c(N)nc2c1
Rank P against Q by their pEC50 values and give the higher one. // output: label of the selected item
Q

###

test system: symmetric dimethylation of arginine (SDMA) of PRMT5 substrates in MCF-7 cells; assay: PRMT5 Cell Target Engagement (TE) Assay; type: cell-based; details: Homo sapiens, MCF7, 72 h; MCF-7 cells treated for 3 days; nuclear SDMA by high content imaging; top concentration 10000 nM
pEC50: −log10 of the molar value.
parameter-measured: pEC50

>>> measured("Cc1cn([C@@H]2O[C@@H]3[C@H](Cc4ccc5cc(F)c(N)nc5c4)CC[C@]3(O)[C@H]2O)c2ncnc(N)c12 [Example 62, 2,2,2-trifluoroacetate]")
8.43

A. Nc1nc2cc(C[C@H]3[C@H]4O[C@@H](n5ccc6c(N)ncnc65)[C@H](O)[C@@]4(O)CC3(F)F)ccc2cc1F
B. Nc1nc2cc(O[C@H]3CC[C@@]4(O)[C@@H]3O[C@@H](n3ccc5c(N)ncnc53)[C@@H]4O)ccc2cc1Cl
Hello, I am sorting some records. Could you say if A or B has the smaller pEC50 value? Record your answer as the label of the chosen record.
A

###

test system: symmetric dimethylation of arginine (SDMA) of PRMT5 substrates in MCF-7 cells; assay: PRMT5 Cell Target Engagement (TE) Assay; assay type: cell-based; details: Homo sapiens, MCF7, 72 h; MCF-7 cells treated for 3 days; nuclear SDMA by high content imaging; top concentration 10000 nM
pEC50: −log10 of the molar value.
parameter-measured: pEC50

Illustrative cases are given below, each with its answer.
>>> measured("C[C@@]1(O)[C@@H](COc2ccc3cc(Br)c(N)nc3c2)O[C@@H](n2ccc3c(N)ncnc32)[C@@H]1O")
8.19
>>> measured("Cc1ncnc2c1c(F)cn2[C@@H]1O[C@@H]2[C@H](Cc3ccc4cc(Br)c(N)nc4c3)CC[C@]2(O)[C@H]1O")
8.12
>>> measured("Cc1ncnc2c1ccn2[C@@H]1C[C@@H]2[C@H](Cc3ccc4cc(Cl)c(N)nc4c3)CC[C@]2(O)[C@H]1O")
9.05
>>> measured("Nc1nc2cc(O[C@H]3CC[C@@]4(O)[C@@H]3O[C@@H](n3cc(F)c5c(N)ncnc53)[C@@H]4O)ccc2cc1F")
8.70
>>> measured("Cc1nc(C)c2ccn([C@@H]3O[C@@H]4[C@H](Cc5ccc6cc(F)c(N)nc6c5)CC[C@]4(O)[C@H]3O)c2n1")
7.37

a. Nc1ncc2c(F)cn([C@@H]3O[C@@H]4[C@@H](Oc5ccc6cc(Br)c(N)nc6c5)CC[C@]4(O)[C@H]3O)c2n1
b. Nc1nc2cc(C[C@@H]3CC[C@@]4(O)[C@@H]3O[C@@H](n3cc(F)c5c(N)ncnc53)[C@@H]4O)ccc2cc1F
Lowest pEC50? choose a or b Write down the label attached to your selection.
a
(a: 6.87, b: 8.34)
